Reference source: ChEMBL document CHEMBL4196038

biological target: Gamma-secretase; assay: Inhibition of gamma-secretase (unknown origin) assessed as reduction in amyloid beta (1 to 42) production; format: protein-complex assay, Homo sapiens
MEASUREMENT LABEL: IC50 (nM)

- CCC1CCCC(COC(=O)N2CCC(N(C)C3CCN(C)CC3)CC2)N1S(=O)(=O)c1ccc(Cl)cc1 (stereo not given): 159
- O=S(=O)(N[C@@H](CO)C(C(F)(F)F)C(F)(F)F)c1ccc(Cl)s1: 8
- O=C(OCC1CCCC(c2cc(F)ccc2F)N1S(=O)(=O)c1ccc(Cl)cc1)N1CCC(N2CCCCC2)CC1 (stereo not given): 4
- O=C(OCC1CCCC(c2cccc(F)c2)N1S(=O)(=O)c1ccc(Cl)cc1)N1CCC(N2CCCCC2)CC1 (stereo not given): 3
- O=C(OCC1CCCC(c2ccccc2F)N1S(=O)(=O)c1ccc(Cl)cc1)N1CCC(N2CCCCC2)CC1 (stereo not given): 8

====

test: Tmax in human at 110 to 1000 mg, po administered as single dose; assay type: ADME, organism-based; conditions: in vivo
MEASUREMENT LABEL: Tmax

• O=C(O)CC[C@H]1CC[C@@](c2cc(F)ccc2F)(S(=O)(=O)c2ccc(Cl)cc2)CC1 = 3 to 4 h

====

target: Gamma-secretase; experiment: Inverse modulatory activity at gamma-secretase (unknown origin) assessed as increase in amyloid beta (1 to 42) level; format: protein-complex assay, Homo sapiens
pIC50: −log10 of the molar value.
MEASUREMENT LABEL: pIC50

* CCOC(=O)[C@H]1CC[C@H]2[C@@H]3CCC4=CC(=O)CC[C@]4(C)[C@H]3CC[C@]12C | 5.20
* C[C@H](CCC(=O)O)[C@H]1CC[C@H]2[C@@H]3CC[C@@H]4CCCC[C@]4(C)[C@H]3CC[C@]12C [URSOCHOLANIC ACID] | 5.25

====

Items are presented alongside their recorded IC50.
target: Gamma-secretase; assay: Inhibition of gamma-secretase (unknown origin); format: protein-complex assay, Homo sapiens
MEASUREMENT LABEL: IC50 (µM)

• O=C(O)C1(c2ccc(-c3ccc(Cl)c(Cl)c3)c(F)c2)CC1 = 40
• C[C@]1(c2cc(NC(=O)c3ccc(C#N)cn3)ccc2F)N=C(N)OCC1(F)F = 0.03
• COc1nc(/C=C/c2nc3n(n2)[C@H](c2ccccc2C(F)(F)F)CCC3)ccc1-n1cnc(C)c1 = 0.017

====

test: Half life in human at 25 to 400 mg, po administered once daily as multiple dose; format: ADME, organism-based; conditions: in vivo
MEASUREMENT LABEL: half-life

- C[C@H]1OC[C@]2(c3cc(NC(=O)c4cnc(C(F)F)cn4)ccc3F)N=C(N)SC[C@H]12 [ELENBECESTAT]: 12 to 16 h

====

experiment: Half life in human at 110 to 1000 mg, po administered as single dose; format: ADME, organism-based; settings: in vivo
MEASUREMENT LABEL: half-life

* O=C(O)CC[C@H]1CC[C@@](c2cc(F)ccc2F)(S(=O)(=O)c2ccc(Cl)cc2)CC1 | 20 h
